target or system: UniProt P00352
Sequence (P00352 2-501): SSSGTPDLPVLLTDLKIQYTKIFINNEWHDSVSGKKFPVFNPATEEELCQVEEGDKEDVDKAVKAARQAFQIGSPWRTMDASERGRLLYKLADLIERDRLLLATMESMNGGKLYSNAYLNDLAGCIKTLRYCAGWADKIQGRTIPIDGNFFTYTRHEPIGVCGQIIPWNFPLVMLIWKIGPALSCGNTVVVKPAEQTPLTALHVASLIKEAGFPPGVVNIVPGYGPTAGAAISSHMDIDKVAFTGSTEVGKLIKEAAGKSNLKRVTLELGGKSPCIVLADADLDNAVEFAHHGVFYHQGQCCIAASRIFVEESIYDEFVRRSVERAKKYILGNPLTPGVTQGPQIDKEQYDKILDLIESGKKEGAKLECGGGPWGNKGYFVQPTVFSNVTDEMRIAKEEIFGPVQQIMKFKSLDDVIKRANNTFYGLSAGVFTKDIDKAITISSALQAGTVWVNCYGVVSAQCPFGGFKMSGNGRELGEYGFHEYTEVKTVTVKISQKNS
measurement type: pIC50
Numbers only, as −log10 of the molar value.

Short answer for CS(=O)(=O)Nc1ccc(-c2coc3cc(OCc4cccc(C(=O)O)c4)ccc3c2=O)cc1 : pIC50 was 5.89

----------
target or system: aldehyde dehydrogenase 2 (ALDH-2) (Homo sapiens)
Sequence (P05091 18-517): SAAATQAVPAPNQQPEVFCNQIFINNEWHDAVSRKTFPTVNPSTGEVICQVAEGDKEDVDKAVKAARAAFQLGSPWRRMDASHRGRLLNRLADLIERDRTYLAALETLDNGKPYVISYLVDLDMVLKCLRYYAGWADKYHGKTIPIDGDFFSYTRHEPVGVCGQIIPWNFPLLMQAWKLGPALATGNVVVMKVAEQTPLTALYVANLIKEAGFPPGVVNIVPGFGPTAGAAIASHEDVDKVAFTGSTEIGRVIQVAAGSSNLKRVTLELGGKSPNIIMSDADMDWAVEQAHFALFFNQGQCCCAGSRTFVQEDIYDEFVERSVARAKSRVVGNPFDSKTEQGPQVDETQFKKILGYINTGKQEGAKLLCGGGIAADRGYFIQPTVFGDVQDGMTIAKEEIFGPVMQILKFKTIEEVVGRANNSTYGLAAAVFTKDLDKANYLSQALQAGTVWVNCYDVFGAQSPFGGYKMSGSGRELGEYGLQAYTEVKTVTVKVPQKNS
pIC50: −log10 of the molar value.
measurement type: pIC50

Measured pIC50 for this entry CS(=O)(=O)Nc1ccc(-c2coc3cc(OCc4cccc(C(=O)O)c4)ccc3c2=O)cc1 on aldehyde dehydrogenase 2 (ALDH-2) (Homo sapiens): ~7.54
